target or system: T1, PTP1B (Homo sapiens, UniProt P18031 P18031:1-321)
T1 sequence: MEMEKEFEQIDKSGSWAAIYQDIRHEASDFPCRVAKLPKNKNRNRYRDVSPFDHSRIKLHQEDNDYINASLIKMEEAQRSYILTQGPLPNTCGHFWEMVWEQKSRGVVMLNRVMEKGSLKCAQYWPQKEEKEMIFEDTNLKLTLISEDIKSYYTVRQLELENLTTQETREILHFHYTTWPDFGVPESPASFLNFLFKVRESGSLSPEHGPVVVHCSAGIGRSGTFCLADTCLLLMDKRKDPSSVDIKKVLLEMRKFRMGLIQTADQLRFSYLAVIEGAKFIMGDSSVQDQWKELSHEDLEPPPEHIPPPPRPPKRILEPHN
method summary: inhibition; 125 mM NaCl, DiFMUP, competitive; 20 nM from Lineweaver-Burk fit
assay setup: tags: N-terminal His6; R&D Systems 1366-PT-050; hairpin
measured parameter: pKi
Scale explanation: pKi corresponds to minus log10 of a concentration expressed in moles per litre.

QUERY: Report measured pKi; entry is GGGAAUUCUGUGAUCAAUUUGGCAAUCCGCCACACGAGUUC (ssRNA) [C13M21]
RESULT: 7.35
